Parameter 'readout' = Ki; parameter 'system' = Itk (Homo sapiens, UniProt Q08881).
Sequence (Q08881 whole entry, species assumed): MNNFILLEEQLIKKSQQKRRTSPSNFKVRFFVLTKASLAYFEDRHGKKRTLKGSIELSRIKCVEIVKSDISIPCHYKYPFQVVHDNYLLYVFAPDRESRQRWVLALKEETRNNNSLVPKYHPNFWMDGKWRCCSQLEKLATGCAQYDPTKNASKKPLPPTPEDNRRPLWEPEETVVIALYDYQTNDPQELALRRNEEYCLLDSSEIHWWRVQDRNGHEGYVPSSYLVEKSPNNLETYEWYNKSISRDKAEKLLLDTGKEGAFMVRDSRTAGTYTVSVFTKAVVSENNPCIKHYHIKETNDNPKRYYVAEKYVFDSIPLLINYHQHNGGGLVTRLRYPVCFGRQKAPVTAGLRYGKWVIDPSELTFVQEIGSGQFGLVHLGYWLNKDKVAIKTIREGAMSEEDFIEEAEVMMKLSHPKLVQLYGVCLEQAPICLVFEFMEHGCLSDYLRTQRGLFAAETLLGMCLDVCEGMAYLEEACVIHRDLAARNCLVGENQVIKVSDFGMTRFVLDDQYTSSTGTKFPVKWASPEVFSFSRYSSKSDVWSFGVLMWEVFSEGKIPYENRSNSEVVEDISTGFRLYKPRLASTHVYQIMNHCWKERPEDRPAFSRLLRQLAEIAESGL

# count of solved cases: 2
For record `Cc1cnc2c(-c3cc(NC4CCCCC4)ncn3)c(N)nn2c1` the listed Ki is 0.5 to 5 µM

Lab note: measured Ki of `Nc1nn2cc(NC(=O)c3ccccc3)cnc2c1-c1ccccn1` was 0.5 to 5 µM

Next:
`Nc1nn2cc(-c3ccncc3)cnc2c1-c1cc(N2CCCCC2)ncn1` has a reported Ki of < 0.5 µM

The measured Ki associated with `Cc1cnc2c(-c3cc(N[C@@H](C)CO)ncn3)c(N)nn2c1` reads 0.5 to 5 µM

Short answer for `Cc1cnc2c(-c3cc(N[C@@H]4CCC[C@H]4OCc4ccccc4)ncn3)c(N)nn2c1` : Ki was 0.5 to 5 µM

Lab note: measured Ki of `CCN(Cc1ccncc1)C(=O)c1c(N)nn2cc(-c3ccncn3)cnc12` was 0.5 to 5 µM

The measured Ki associated with `Nc1nn2cc(-c3cccc(CN4CCNCC4)c3)cnc2c1-c1ccccn1` reads < 0.5 µM

# Ki of `CCN(CCN)C(=O)c1ccc(-c2cnc3c(-c4ccccn4)c(N)nn3c2)nc1` = < 0.5 µM

According to the records, this compound `Nc1nn2cc(-c3ccncn3)cnc2c1C(=O)N1CCCC1` displays Ki of 0.5 to 5 µM

Field Ki (entry `COc1ccc(-c2cnc3c(N)c(N)nn3c2)cc1` ) reads 0.5 to 5 µM

Reported Ki for `CCN(CCO)C(=O)c1cccc(-c2cnc3c(-c4ccccn4)c(N)nn3c2)n1` was 0.5 to 5 µM

Noted for `COc1ccccc1Nc1cc(-c2c(N)nn3cc(-c4ccncc4)cnc23)ncn1` : its Ki reads < 0.5 µM

Form field Ki, entry `Cc1cnc2c(-c3cc(NC4CCCC4)ncn3)c(N)nn2c1` : < 0.5 µM

compound `Cc1ccc(-c2c(N)nn3cc(-c4ccncc4)cnc23)nc1` , Ki observed: 0.5 to 5 µM

Per the record, `CCN(C)C(=O)c1cccc(-c2cnc3c(-c4ccccn4)c(N)nn3c2)n1` has Ki of 0.5 to 5 µM

The measured Ki associated with `CCN(C)c1ccc(-c2cnc3c(-c4ccccn4)c(N)nn3c2)cn1` reads 0.5 to 5 µM

get_value(item= NC1CCN(Cc2cccc(C3=CN4NC(N)C(c5ccccn5)=C4N=C3)c2)CC1 (centres unmarked) , readout=Ki) returns < 0.5 µM

The compound identified as Nc1nn2cc(C(=O)NC3CCCNC3)cnc2c1-c1ccccn1 (centres unmarked) registered its Ki at 0.5 to 5 µM

Reported Ki ( `Nc1nn2cc(-c3ccc(N4CCNCC4)nc3)cnc2c1-c1ccccn1` ) = < 0.5 µM

Reported Ki of `CNCCN(C)C(=O)c1cccc(-c2cnc3c(-c4ccccn4)c(N)nn3c2)c1` : < 0.5 µM

# Ki of Cc1cnc2c(-c3cc(N4CCCC4C)ncn3)c(N)nn2c1 (centres unmarked) = < 0.5 µM
